Listed here are binders together with their documented koff.
Target: T1, human IL-23 (human, UniProt Q9NPF7 20-189; P29460 23-328)
T1 construct: also called hIL-23; human recombinant IL-23
T1 sequence (looked up) 1: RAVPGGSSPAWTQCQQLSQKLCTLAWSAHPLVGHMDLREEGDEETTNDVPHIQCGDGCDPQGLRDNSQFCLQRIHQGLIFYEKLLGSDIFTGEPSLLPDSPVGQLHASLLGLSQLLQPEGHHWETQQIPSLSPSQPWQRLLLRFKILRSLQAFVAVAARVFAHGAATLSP
T1 sequence (looked up) 2: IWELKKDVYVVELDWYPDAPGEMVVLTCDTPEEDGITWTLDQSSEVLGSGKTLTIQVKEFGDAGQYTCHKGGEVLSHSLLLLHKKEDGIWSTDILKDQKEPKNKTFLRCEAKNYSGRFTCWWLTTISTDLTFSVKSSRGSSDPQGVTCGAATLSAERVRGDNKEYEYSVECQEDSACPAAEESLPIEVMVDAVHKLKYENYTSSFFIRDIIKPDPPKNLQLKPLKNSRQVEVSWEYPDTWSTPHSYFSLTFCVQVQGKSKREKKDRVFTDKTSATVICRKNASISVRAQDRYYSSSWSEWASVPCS
Test: SPR, Adnectin captured by anti-His mAb, IL-23 injected
property: koff (s⁻¹)

{"binder": "1490 E02 (designed binder, captured by anti-His mAb) MGVSDVPRDLEVVAATPTSLLISWGHYPMHVRYYRITYGETGGNSPVQEFTVPRTQYTATISGLKPGVDYTITVYAVTYYNEADYSQIPISINYRTEIDKPSQHHHHHH", "property": "koff", "measurement": 0.000465}
{"binder": "1487C03 (designed binder, captured by anti-His mAb) MGVSDVPRDLEVVAATPTSLLISWGHYPLHIRYYRITYGETGGNSPVQEFTVPKQVYTATISGLKPGVDYTITVYAVTYYNEADYSQIPISINYRTEIDKPSQHHHHHH", "property": "koff", "measurement": 0.000382}
{"binder": "1571G04 (designed binder, captured by anti-His mAb) MGVSDVPRDLEVVAATPTSLLISWGHYPLHVRYYRITYGETGGNSPVQEFTVPPRSHTATISGLKPGVDYTITVYAVTYYAQENYKEIPISINYRTEIDKPSQHHHHHH", "property": "koff", "measurement": 0.000361}
